# key: entry, value: IC50
Target: ENL YEATS domain (association with H3K27cr) (Homo sapiens)
Sequence (Q03111 1-148): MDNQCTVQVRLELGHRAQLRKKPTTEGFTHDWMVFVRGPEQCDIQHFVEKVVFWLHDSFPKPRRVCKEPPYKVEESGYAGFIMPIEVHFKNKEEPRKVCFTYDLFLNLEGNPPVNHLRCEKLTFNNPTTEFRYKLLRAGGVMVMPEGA
Test: biochemical
Details: ENL (YEATS)-H3K27cr HTRF (IC50, μM), Table 2
Procedure: Protein Production. Double stranded DNA fragments encoding the protein sequence of ENL YEATS(1-148) were synthesized (IDT DNA) for assembly-based cloning into a modified expression vector backbone derived from pET21a (Novagen). […] Homogenous time-resolved FRET (HTRF) histone-binding assays. […] Assays were incubated for 2 or more hours before measurement of HTRF signal on a PHERAstar plate reader (BMG Labtech; simultaneous dual emission; excitation=337 nm, emission 1=665 nm, emission 2=620 nm). […]

These recorded examples may help you get a feel for the data.
Input line: Entry CCC(CC)NC(=O)c1ccc2nc(-c3ccccc3)cn2c1 [Compound 13] has what IC50?
Output line: > 50 µM

Input line: Entry CC(C)NC(=O)c1ccc2nc(-c3cccc(NS(=O)(=O)NCCCCCCCC(=O)O)c3)cn2c1 [Compound 63] has what IC50?
Output line: 0.46 µM

We next turn to a different molecule, shown below.
Input line: Entry CC(C)NC(=O)c1ccc2nc(-c3ccc(OC(F)(F)F)cc3)cn2c1 [Compound 19] has what IC50?
Output line: > 50 µM

Data provenance is patent US20220274980A1.
